System: Staphylococcus aureus ATCC 29213
Test: Antibacterial susceptibility testing, IC90 determination (broth microdilution, resazurin)
Type: cell-based
Conditions: Staphylococcus aureus, ATCC29213, S. aureus ATCC 29213; 90% inhibitory concentration for bacterial growth; read-out: STA (361.159) IC90
Source text: Y.2 In Vitro Method for Testing Compounds for Antibacterial Activity Against Various Bacterial Strains Preparation of Bacterial Suspensions for Susceptibility Testing The following bacteria were used: Staphylococcus aureus ATCC 29213, methicillin-resistant Staphylococcus aureus (MRSA) ATCC 700788 and Escherichia coli ATCC 35218. […]
Response field label takes rule met when IC90 is strictly below 1 µg/mL and rule not met in all other cases.

Task: Dear colleague, could you confirm whether IC90 of O=C1CN(c2ccccc2)Cc2cc(/C=C/C(=O)N3CCC=C(c4ccccc4)CC3)cnc2N1 falls below 1 µg/mL? Thanks.
Output: rule met

Task: Dear colleague, could you confirm whether IC90 of CS(=O)(=O)N1CC(=O)Nc2ncc(/C=C/C(=O)N3CCC=C(c4ccccc4)CC3)cc2C1 falls below 1 µg/mL? Thanks.
Output: rule met

Task: Dear colleague, could you confirm whether IC90 of Nc1ccc(/C=C/C(=O)N2CC=C(c3ccccc3)CCC2)cn1 falls below 1 µg/mL? Thanks.
Output: rule not met

Task: Dear colleague, could you confirm whether IC90 of O=C(Nc1ccc(/C=C/C(=O)N2CCC=C(c3ccccc3)CC2)cn1)C1CCCCC1 falls below 1 µg/mL? Thanks.
Output: rule not met

Task: Dear colleague, could you confirm whether IC90 of O=C(/C=C/c1ccc(Nc2ccccc2)nc1)N1CCC=C(c2ccccc2)CC1 falls below 1 µg/mL? Thanks.
Output: rule not met

Task: Dear colleague, could you confirm whether IC90 of O=C(Nc1ccc(/C=C/C(=O)N2CCC=C(c3ccccc3)CC2)cn1)c1ccoc1 falls below 1 µg/mL? Thanks.
Output: rule met

Task: Dear colleague, could you confirm whether IC90 of CC(C)Nc1ccc(/C=C/C(=O)N2CCC=C(c3ccccc3)CC2)cn1 falls below 1 µg/mL? Thanks.
Output: rule not met

Task: Dear colleague, could you confirm whether IC90 of O=C1Nc2ncc(/C=C/C(=O)N3CCC=C(c4ccccc4)CC3)cc2CN2CCNCC12 (stereo not drawn) falls below 1 µg/mL? Thanks.
Output: rule not met

Task: Dear colleague, could you confirm whether IC90 of O=C1Nc2ncc(/C=C/C(=O)N3CC=C(c4ccccc4)CCC3)cc2CN2CCOCC12 (stereo not drawn) falls below 1 µg/mL? Thanks.
Output: rule met

Task: Dear colleague, could you confirm whether IC90 of CC(=O)Nc1ccc(/C=C/C(=O)N2CCC=C(c3ccccc3)CC2)cn1 falls below 1 µg/mL? Thanks.
Output: rule met

Task: Dear colleague, could you confirm whether IC90 of COc1ccc(F)cc1C1=CCCN(C(=O)/C=C/c2cnc3c(c2)COCC(=O)N3)CC1 falls below 1 µg/mL? Thanks.
Output: rule met

Task: Dear colleague, could you confirm whether IC90 of COc1ccc(CN2CC(=O)Nc3ncc(/C=C/C(=O)N4CCC=C(c5ccccc5)CC4)cc3C2)cc1 falls below 1 µg/mL? Thanks.
Output: rule not met

Task: Dear colleague, could you confirm whether IC90 of O=C1CNCc2cc(/C=C/C(=O)N3CCC=C(c4ccccc4)CC3)cnc2N1 falls below 1 µg/mL? Thanks.
Output: rule met

Task: Dear colleague, could you confirm whether IC90 of O=C1Nc2ncc(/C=C/C(=O)N3CCC=C(c4ccccc4)CC3)cc2CO1 falls below 1 µg/mL? Thanks.
Output: rule met

Task: Dear colleague, could you confirm whether IC90 of O=C(Nc1ccc(/C=C/C(=O)N2CCC=C(c3ccccc3)CC2)cn1)C1CCCO1 (stereo not drawn) falls below 1 µg/mL? Thanks.
Output: rule not met

Task: Dear colleague, could you confirm whether IC90 of COc1ccc(F)cc1C1=CCCN(C(=O)/C=C/c2cnc3c(c2)CN2CCN(C(C)=O)CC2C(=O)N3)CC1 (stereo not drawn) falls below 1 µg/mL? Thanks.
Output: rule met

Task: Dear colleague, could you confirm whether IC90 of O=C(Nc1ccc(/C=C/C(=O)N2CCC=C(c3ccccc3)CC2)cn1)c1ccncc1 falls below 1 µg/mL? Thanks.
Output: rule not met

Task: Dear colleague, could you confirm whether IC90 of CC(C)CC(=O)Nc1ccc(/C=C/C(=O)N2CCC=C(c3ccccc3)CC2)cn1 falls below 1 µg/mL? Thanks.
Output: rule not met

Task: Dear colleague, could you confirm whether IC90 of O=C(Nc1ccc(/C=C/C(=O)N2CCC=C(c3ccccc3)CC2)cn1)c1cnccn1 falls below 1 µg/mL? Thanks.
Output: rule not met

Task: Dear colleague, could you confirm whether IC90 of O=C1Nc2ncc(/C=C/C(=O)N3CCC=C(c4ccccc4)CC3)cc2CN2CCOCC12 (stereo not drawn) falls below 1 µg/mL? Thanks.
Output: rule met

Task: Dear colleague, could you confirm whether IC90 of COc1ccc(F)cc1C1=CCCN(C(=O)/C=C/c2ccc(NC(=O)c3cncc(C)c3)nc2)CC1 falls below 1 µg/mL? Thanks.
Output: rule met

Task: Dear colleague, could you confirm whether IC90 of CC(C)(C)C(=O)Nc1ccc(/C=C/C(=O)N2CCC=C(c3ccccc3)CC2)cn1 falls below 1 µg/mL? Thanks.
Output: rule not met

Task: Dear colleague, could you confirm whether IC90 of O=C1Nc2ncc(/C=C/C(=O)N3CC=C(c4ccccc4)CCC3)cc2CN2CCSCC12 (stereo not drawn) falls below 1 µg/mL? Thanks.
Output: rule met

Task: Dear colleague, could you confirm whether IC90 of O=C1Nc2ncc(/C=C/C(=O)N3CCC=C(c4ccccc4)CC3)cc2CN2CCSCC12 (stereo not drawn) falls below 1 µg/mL? Thanks.
Output: rule met
